// reported pIC50 per item
Target: T1, recombinant human PD-L2-Fc-biotin (human, UniProt Q9BQ51 20-220, biotin)
T1 chain: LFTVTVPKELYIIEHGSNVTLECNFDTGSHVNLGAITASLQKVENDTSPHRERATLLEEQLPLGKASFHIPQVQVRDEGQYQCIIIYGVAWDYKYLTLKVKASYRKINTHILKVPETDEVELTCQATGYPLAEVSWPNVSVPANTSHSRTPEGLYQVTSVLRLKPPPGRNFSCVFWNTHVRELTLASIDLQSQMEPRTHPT
Assay: FACS blocking of hPD-L2 binding to HEK293T-hPD-1; low antigen concentration
Please keep in mind that pIC50 is minus log10 of the molar concentration; only the number is needed.

# count of solved cases: 3
{"Binder": "11C11-H5 (antibody, V domains shown, Both formats under this entry) VH: QVQLVESGGGVVQPGRSLRLSCAASGFAFSAYGMHWVRQAPGKGLEWVAISWYDGSNNYHADSVKGRFTISRDSSKNTLYLQMNSLRAEDTAVYYCAKSIGVARHYYYGMDVWGQGTTVTVSS VL: SYELTQPPSVSVSPGQTASITCSGEELGDKYACWYQQKPGQSPVLVIYQDSKRPSGIPERFSGSNSGNAATLTISGTQAMDEADYYCQAWDSITVVFGGGTKLTVLG", "Measured": 10.83}
{"Binder": "2C4-E4 (antibody, V domains shown, Both formats under this entry) VH: QVQLVQSGAEVKKPGASVKVSCKASGYTFTGYVMHWVRQAPGQRLEWMGWINADNGITKYSQKFQGRVTITRDTSASTAYMELTNLRSEDTAVYYCARATRGFGEFYFDYWGQGNLVTVSS VL: DIQMTQSPSTLSASVGDRVTITCRASQTISSWLAWYQQKPGKAPNLLIYKASSLESGVPSRFSGSGSGTEFTLTISSLQPDDFATYYCQQYYSYWTFGQGTKVEIK", "Measured": 10.67}
{"Binder": "8B5-B1 (antibody, V domains shown, Both formats under this entry) VH: EVQLLESGGGLVQPGGSLKLSCAASGFTFSSYAMFWVRQAPGEGLAWVSAITGSGDHTYYADSVKDHFTISRDNSKNTLYLQMNSLKAEDTAVYYCAKDASGNSYGFPYWYFDLWGRGTLVTVSS VL: QSALTQPASVSGSPGQSITISCTGTSSDVAGYNFVSWYQHHPGKTPKLMIYDVTNRPSGVSTRFSGSKSGNTASLTISGLQAEDEADYYCSSFTSATTLVFGGGTKLTVLG", "Measured": 10.25}

Problem: Given 1A1-C2 (antibody, V domains shown) VH: QVQLQESGPGLVKPSGTLSLTCAVSGGSIGSSYWWTWIRQSPGKGLEWIGEIFHSGPTNYTPSLKSRVTISVDKSKNQFSLQLRSVTAADTAVYYCARTTGTTGFYYGMDVWGQGTTVTVSS VL: EVVLTQSPATLYVTPGERVTLSCRASQSVSSNLAWYQQKPGQAPRLLIYGASTRATGIPARFSGSGSGTEFTLTISSLQSEDFAVYYCQQFNNWPRTFGLGTKVEIT , state its recorded pIC50.
Solution: 10.39

Problem: Continue with 19C3-B3 (antibody, V domains shown, Both formats under this entry; also called 19C3-C3) VH: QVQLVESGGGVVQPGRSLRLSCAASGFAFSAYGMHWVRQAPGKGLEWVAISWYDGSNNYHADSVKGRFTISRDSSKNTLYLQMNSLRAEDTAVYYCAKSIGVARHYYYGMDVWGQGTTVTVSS VL: SYELTQPPSVSVSPGQTASITCSGEELGDKYACWYQQKPGQSPLLVIYQDSKRPSGIPERFSGSNSGNAATLTISGTQAMDEADYYCQAWDSITVIFGGGTKLTVLG
Solution: 10.82
